system: RhlR (Pseudomonas aeruginosa, UniProt P54292)
measurement-notes: biochemical
pKd: −log10 of the molar value.
measured-metric: pKd

Query `c1ccc2c(c1)[nH]c1cnccc12` on RhlR (Pseudomonas aeruginosa, UniProt P54292); pKd returned: < 3.00

* * *

system: PqsE (Pseudomonas aeruginosa, UniProt P20581)
Construct: His6-tagged PqsE (pET30a-His6-pqsE), expressed in E. coli BL21 Star (DE3)
measurement-notes: biolayer interferometry (Octet K2)
measured-metric: Kd (µM)
Numbers only; they are read as µM.

Known value: PqsE (Pseudomonas aeruginosa, UniProt P20581) Kd of the compound `c1ccc2c(c1)[nH]c1cnccc12` equals 500

Hey, just so you know, these numbers are from paper PMC9430567.
